# Tested on: BT-549 breast
# Method Description: NCI-60 one-dose screen, 48 h (100 = growth as untreated, 0 = no growth, -100 = all killed)
# Condition Label: 10 µM unless noted
About 83,000 compounds went through this panel and 20% of them were active in at least one assay; those are over-represented in the sample as a whole.
Value Type: growth (%)
Respond numerically; units are % and should not be typed.

Worked examples follow.
1. O=C1C=C(N2CC2)c2ccccc2C1=O
71.5
2. O=C1c2ccccc2C(=O)N1N1CC1c1ccccc1 (stereo not given)
99
3. C[C@]12CCc3sc(Nc4ccc(F)cc4)nc3C1=CC[C@@H]1[C@@H]2CC[C@]2(C)C(=O)CC[C@@H]12
43.8
4. O=c1c2ccccc2nc(-c2ccccc2Cl)n1-c1nnc(C(F)(F)F)s1
22.3
5. O=P(O)(Nc1ccccc1)Nc1ccccc1
100
6. O=[P+](O)c1cccnc1
116
7. O=c1[nH]c(=O)[nH]c(=O)[nH]1
145
8. CO[C@@H]([CH2][Hg][O]C(=O)c1ccccc1)[C@@H]([CH2][Hg][O]C(=O)c1ccccc1)OC
110
9. CO/N=C1\CC[C@]2(C)[C@H]3CC[C@]4(C)C(=O)CC[C@H]4[C@@H]3C[C@@H]3SC(N)=N[C@@]32C1
106

(Q) Please give the measured growth for this compound: CC1(C)C=Cc2c(ccc3c2[N+]([O-])=C2C3=C[C@@]34NC(=O)[C@]5(CCCN5C3=O)C[C@@H]4C2(C)C)O1
(A) 39.8
